Reference source for all entries: patent US20210246166A1

human MASP1 IC50 values, listed per item
# SYSTEM: T1, Recombinant human MASP1 enzyme (fragment corresponding to amino acids 297-699, C-terminal His Tag) (human, UniProt P48740 297-699)
# T1 sequence: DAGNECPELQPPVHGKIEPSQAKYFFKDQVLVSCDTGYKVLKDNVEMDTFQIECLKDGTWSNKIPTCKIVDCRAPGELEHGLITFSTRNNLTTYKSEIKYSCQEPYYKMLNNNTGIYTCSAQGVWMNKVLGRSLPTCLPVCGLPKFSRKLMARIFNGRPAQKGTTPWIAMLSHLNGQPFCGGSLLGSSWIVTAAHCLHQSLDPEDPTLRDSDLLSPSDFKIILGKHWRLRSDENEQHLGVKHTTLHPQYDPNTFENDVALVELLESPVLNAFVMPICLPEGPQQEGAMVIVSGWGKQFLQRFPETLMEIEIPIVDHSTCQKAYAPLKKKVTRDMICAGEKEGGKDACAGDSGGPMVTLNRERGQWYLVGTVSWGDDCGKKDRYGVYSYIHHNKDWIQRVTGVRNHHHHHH
# TEST DETAILS: cell-based or functional assay
Bridge positions count the residues as written; N and C are the ends. Square brackets hold non-standard residues; d marks the D form. Ends that are not written are not given here. Pro(4-spirocPr) = O=C(O)[C@@H]1CC2(CC2)CN1; Oic = O=C(O)[C@@H]1C[C@@H]2CCCC[C@@H]2N1; tBuAla = CC(C)(C)C[C@H](N)C(=O)O; Pen = CC(C)(S)[C@H](N)C(=O)O; Tranexamic = tranexamic acid; NMeC = CN[C@@H](CS)C(=O)O; NPhGly = O=C(O)CNc1ccccc1; Sar = CNCC(=O)O
MEASUREMENT TYPE: human MASP1 IC50 (nM)

[[record]]
binder = "AICSRS[tBuAla]PPI[Pen]IP[Tranexamic]-NH2 (disulfide 3-11) [AIC+SRS-((tBu)A)-PPI-(Pen)+IP-(Tranexamic)-NH2]"
unit_spec = "nM"
recorded_number = 4.3

[[record]]
binder = "[NPhGly]ICSRS[tBuAla]PPI[NMeC]I-NH2 (disulfide 3-11; N-terminus assumed; SMILES CC[C@H](C)[C@H](NC(=O)[C@@H]1CSSC[C@H](NC(=O)[C@@H](NC(=O)CNc2ccccc2)[C@@H](C)CC)C(=O)N[C@@H](CO)C(=O)N[C@@H](CCCNC(=N)N)C(=O)N[C@@H](CO)C(=O)N[C@@H](CC(C)(C)C)C(=O)N2CCC[C@H]2C(=O)N2CCC[C@H]2C(=O)N[C@@H]([C@@H](C)CC)C(=O)N1C)C(N)=O) [((N-Ph)G)-IC+SRS-((tBu)A)-PPI-((N-Me)C)+I-NH2]"
unit_spec = "nM"
recorded_number = 18

[[record]]
binder = "AICSRSLP[Pro(4-spirocPr)]ICIPD-NH2 (disulfide 3-11; N-terminus assumed; SMILES CC[C@H](C)[C@H](NC(=O)[C@H](C)N)C(=O)N[C@H]1CSSC[C@@H](C(=O)N[C@H](C(=O)N2CCC[C@H]2C(=O)N[C@@H](CC(=O)O)C(N)=O)[C@@H](C)CC)NC(=O)[C@H]([C@@H](C)CC)NC(=O)[C@@H]2CC3(CC3)CN2C(=O)[C@@H]2CCCN2C(=O)[C@H](CC(C)C)NC(=O)[C@H](CO)NC(=O)[C@H](CCCNC(=N)N)NC(=O)[C@H](CO)NC1=O) [AIC+SRSLP-((6S)-5-Azaspiro[2.4]heptane-6-carboxylic acid)-IC+IPD-NH2]"
unit_spec = "nM"
recorded_number = 8.5

[[record]]
binder = "[Sar]ICSRSLP[Oic]I[Pen]IPD-NH2 (disulfide 3-11; N-terminus assumed; SMILES CC[C@H](C)[C@H](NC(=O)CNC)C(=O)N[C@H]1CSSC(C)(C)[C@@H](C(=O)N[C@H](C(=O)N2CCC[C@H]2C(=O)N[C@@H](CC(=O)O)C(N)=O)[C@@H](C)CC)NC(=O)[C@H]([C@@H](C)CC)NC(=O)[C@@H]2C[C@@H]3CCCC[C@@H]3N2C(=O)[C@@H]2CCCN2C(=O)[C@H](CC(C)C)NC(=O)[C@H](CO)NC(=O)[C@H](CCCNC(=N)N)NC(=O)[C@H](CO)NC1=O) [((N-Me)G)-IC+SRSLP-(Oic)-I-(Pen)+IPD-NH2]"
unit_spec = "nM"
recorded_number = 4.05

